# Test system: 677734-321-R-J1-PDC complex spheroid viability;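 further: spheroids exposed to compounds for one week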
# protocol_summary: Anticancer human tumor 677734-321-R-J1-PDC patient-derived soft tissue sarcoma cell line growth inhibition [POLQ]
# assay_setup: curve of first compound; second compound 1 µM
quantity_name: IC50 (µM)
Could you give me the number in µM? Just the number is fine.

[
  {
    "compound": "COc1cccc(OCCCN)c1-c1cc(Nc2cnc(C#N)cn2)n[nH]1 + Cc1cccc(N(C)C(=O)C2C(O)CCN2c2nc(C)cc(C(F)(F)F)c2C#N)c1",
    "IC50 / µM": 0.00349
  }
]

Prompt line: Field: IC50 (677734-321-R-J1-PDC complex spheroid viability). Entry: O=C(Nc1ccc(O)c(NS(=O)(=O)c2ccc(F)cc2)c1)c1ccc(-c2ccccc2)cc1 + Nc1ccc(C#CCN(C(=O)Cc2ncc(C(F)(F)F)cc2C(F)(F)F)c2ccc(F)cc2)nn1
Response line: 4.08
